These measurements were taken from the supplement of paper PMC7877785.

experiment-summary: self-splicing fitness, log relative to wild type (ln ratio); higher = more splicing; Tetrahymena group I intron in knt gene, E. coli kanamycin selection, DiMSum; sequences stand for … in CUCUCU…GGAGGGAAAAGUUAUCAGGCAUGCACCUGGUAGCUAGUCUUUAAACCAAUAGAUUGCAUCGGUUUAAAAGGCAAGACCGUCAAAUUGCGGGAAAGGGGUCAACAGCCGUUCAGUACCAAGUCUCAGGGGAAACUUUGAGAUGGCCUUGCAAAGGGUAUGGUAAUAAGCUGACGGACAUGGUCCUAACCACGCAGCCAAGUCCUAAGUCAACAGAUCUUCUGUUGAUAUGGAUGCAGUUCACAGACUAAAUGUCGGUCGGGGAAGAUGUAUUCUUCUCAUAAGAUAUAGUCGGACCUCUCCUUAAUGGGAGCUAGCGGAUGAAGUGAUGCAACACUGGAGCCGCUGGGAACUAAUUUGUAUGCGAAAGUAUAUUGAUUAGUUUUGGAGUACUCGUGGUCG;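 further: selection with 25 µg/mL kanamycin versus none on LB agar overnight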
details: 37 °C
Param threshold (-1) applies to self-splicing fitness (ln); output 1 (yes) when value >= threshold, 0 (no) when value < threshold.

Solved entries:
- residue-sequence: "ACCUAGCAAUAUUACGGUGG"
  label: "0 (no)"
- residue-sequence: "UUAGAGCAAUAUUACGCUUG"
  label: "1 (yes)"
- residue-sequence: "GUCGAGCAAUAUUACGUGAC"
  label: "0 (no)"

Now consider a different sequence.
Identify whether the reported self-splicing fitness (ln) of the following sequence is -1 or greater: `UGACAGCAAUAUUACGUAAC`
0 (no)
